recordedEndpoint: melting point

* COc1cc(Nc2ncc(-c3ccccc3)o2)ccc1-c1cnco1 | 212 to 215 °C
* COc1cc(Nc2cccc(-c3ccccc3)c2)ccc1-c1cnco1 | 171 to 173 °C
* COc1cc(Nc2ncc(-c3ccccc3C(=O)O)o2)ccc1-c1cnco1 | 271 to 274 °C
* COc1cc(Nc2cc(-c3ccccc3)on2)ccc1-c1cnco1 | 173 to 175 °C
* COc1cc(Nc2nsc(-c3ccccc3)n2)ccc1-c1cnco1 | 260 to 261 °C
* COc1cc(Nc2ncc(-c3ccccc3N(C)C(=O)CN3CCOCC3)o2)ccc1-c1cnco1 | 179 to 181 °C
